Origin of measurements: the antibiotic and cytotoxicity screens of Wong et al. (2023)

System: HepG2
Experiment: cytotoxicity call (relative viability < 0.9)
Settings: 10 µM
Screen size: about 39,000 compounds; about 3,300 (8.5%) were called active. The full list was thinned out, with actives kept by preference.

Structure Smiles: O=C(C[C@@H]1CC[C@@H]2[C@H](COC[C@@H](O)CN2Cc2cc(F)ccc2F)O1)N[C@H]1CCN(Cc2ccccc2)C1
cytotoxicity call: inactive

Structure Smiles: O=C(C[C@@H]1CC[C@H]2[C@@H](COC[C@H](O)CN2Cc2cc(F)ccc2F)O1)N[C@H]1CCN(Cc2ccccc2)C1
cytotoxicity call: inactive

Structure Smiles: COc1oc(C(=O)NC2CCCCC2)c(-c2ccc(Cl)cc2)c1S(=O)(=O)c1ccc(Cl)cc1
cytotoxicity call: inactive

---

Tested on: HepG2
Assay: cytotoxicity call (relative viability < 0.9)
Conditions: 10 µM
Screen size: about 39,000 compounds; about 3,300 (8.5%) were called active. Many of the other results were omitted from the sample, so actives are more common in it than they were.
Labels: active, inactive

Structure Smiles: O=c1[nH]cnc2nc[nH]c12
Category Label: inactive
//
Structure Smiles: Nc1nc2nc[nH]c2c(=S)[nH]1
Category Label: inactive
//
Structure Smiles: COc1ccc(NC(=O)N(C)C[C@@H]2Oc3ncc(C#CCN(C)C)cc3C(=O)N([C@@H](C)CO)C[C@@H]2C)cc1
Category Label: inactive
//
Structure Smiles: S=c1[nH]cnc2nc[nH]c12
Category Label: active
//
Structure Smiles: Nc1nc2nc[nH]c2c(=O)[nH]1
Category Label: inactive
//
Structure Smiles: C[C@H](CO)N1C[C@H](C)[C@H](CN(C)Cc2cccc(C(F)(F)F)c2)Oc2ncc(-c3ccc(F)cc3)cc2C1=O
Category Label: inactive

---

Tested on: HepG2
Experiment: cytotoxicity call (relative viability < 0.9)
Settings: 10 µM
Hit rate of the full screen: of about 39,000 compounds, about 3,300 (8.5%) were called active. The entries come from a sample that favours actives as a whole.
Outcome codes: active, inactive

Structure Smiles: O=c1[nH]ccn(-c2ccccc2)c1=O
Category Label: active
--
Structure Smiles: COc1ccccc1-c1cnc2c(c1)C(=O)N([C@H](C)CO)C[C@@H](C)[C@@H](CN(C)C(=O)c1ccncc1)O2
Category Label: inactive
--
Structure Smiles: O=C(C1=C[C@H](c2coc3ccccc3c2=O)C[C@H](OCc2ccc(CO)cc2)O1)N1CCCCCCC1
Category Label: inactive
--
Structure Smiles: CCS(=O)(=O)Nc1ccc2c(c1)/C(=C(/Nc1ccc(CN3CCCCC3)cc1)c1ccccc1)C(=O)N2
Category Label: active
--
Structure Smiles: C[C@@H]1CN([C@@H](C)CO)C(=O)c2cccc(NS(C)(=O)=O)c2O[C@@H]1CN(C)S(=O)(=O)c1ccc(Cl)cc1
Category Label: inactive
--
Structure Smiles: C[C@@H]1CN([C@H](C)CO)C(=O)c2cccc(NC(=O)c3nc4ccccc4s3)c2O[C@@H]1CN(C)S(=O)(=O)c1cn(C)cn1
Category Label: inactive
--
Structure Smiles: CCS(=O)(=O)Nc1ccc2c(c1)CC(=O)N2
Category Label: inactive
--
Structure Smiles: O=c1[nH]ncn1-c1ccccc1
Category Label: inactive
--
Structure Smiles: C[C@@H]1CN([C@H](C)CO)C(=O)c2cc(NS(C)(=O)=O)ccc2O[C@@H](C)CCCCO[C@H]1CN(C)CC1CC1
Category Label: inactive
